- Test system: U251 CNS
- PROTOCOL: NCI tumour cell line growth inhibition, 48 h

COMPOUND: Brc1cccc(-c2cc(-c3ccc4nccnc4c3)[nH]n2)c1
TGI: 75.2 µM
//
COMPOUND: Cc1cc(C)c2c(=N)c3ccccc3n(CCCCCCO)c2n1
TGI: 13.8 µM
//
COMPOUND: CCC[CH2][Sn]([CH2]CCC)([O]C(=O)/C=C/c1ccccc1F)[O]C(=O)/C=C/c1ccccc1F
TGI: 1.41 µM
//
COMPOUND: CC(=O)NNc1nc(C)c(C(=O)/C=C/c2ccc(/C=C/C(=O)c3sc(NNC(C)=O)nc3C)cc2)s1
TGI: > 100 µM
//
COMPOUND: Cc1ccc(Sc2oc(-c3ccc(C)cc3)nc2[P+](c2ccccc2)(c2ccccc2)c2ccccc2)cc1
TGI: 1.41 µM
//
COMPOUND: Cc1cc(C)nc(NS(=O)(=O)c2ccc(NC(=O)c3cccn4c(=O)c5ccccc5nc34)cc2)n1
TGI: > 100 µM
//
COMPOUND: COc1ccc2c(c1)C(=O)c1c-2c(N2CCNCC2)nc2ccccc12
TGI: 16.6 µM
//
COMPOUND: O=C1c2ccccc2-c2nc(-c3ccccc3)cc3c2c1nc1ccccc13
TGI: 39.6 µM
//
COMPOUND: C#C[C@H]1CCCCCC1O (some centres not stated)
TGI: > 100 µM
//
COMPOUND: COc1ccc2c(c1OC)C(=O)O[C@@H]2[C@H]1c2cc3c(cc2CCN1C)OCO3
TGI: > 100 µM
//
COMPOUND: CCOC(=O)C1=C(C)N2C(=NC3=C(CCC/C3=C\c3ccc(Cl)cc3)C2c2ccc(Cl)cc2)S1 (configuration not stated)
TGI: 4.06 µM
//
COMPOUND: Cn1c2c(c3ccccc31)CCN1C(=O)C3SC21C1C(=O)N(c2ccccc2)C(=O)C31 (configuration not stated)
TGI: > 100 µM
//
COMPOUND: CC(=O)[CH-]C(=O)Nc1ccccc1.CC(=O)[CH-]C(=O)Nc1ccccc1.CC[O-].CC[O-].[Ti+4]
TGI: > 100 µM
//
COMPOUND: CCOC(=O)c1c(NCc2ccccc2)n(-c2ccccc2)c(=S)n(-c2ccccc2)c1=O
TGI: > 100 µM
//
COMPOUND: NC(=O)c1cccc(-c2cc(C(N)=O)ccc2Cl)c1
TGI: > 100 µM
//
COMPOUND: Nc1n[nH]c2ccc([C@@H]3Nc4cc5[nH]ncc5cc4[C@H]4C5CCC(C5)[C@@H]34)cc12 (some centres not stated)
TGI: > 58 µM
//
COMPOUND: COc1cc([C@H]2Oc3c(OC)cc(CCCO)cc3[C@@H]2CO)ccc1O
TGI: > 100 µM
//
COMPOUND: CC(=O)C12C[C@](C#N)(N3CCCCCC3)C1C=Cc1ccccc12 (some centres not stated)
TGI: > 100 µM
//
COMPOUND: Cc1nc2ccccc2c(=O)n1/N=C(\N=Nc1cccc(Cl)c1)c1ccccc1Cl
TGI: > 100 µM
//
COMPOUND: O=C(N/C(=C\c1cc(Cl)ccc1Cl)c1nc2ccc(Cl)cc2[nH]1)c1ccccc1
TGI: 30.1 µM
//
COMPOUND: CC(=O)O.CC(=O)O.CC(=O)O.CC(=O)O.[Rh].[Rh]
TGI: 75.3 µM
//
COMPOUND: CC1C2CC(C/C2=N/O)C1(C)C (configuration not stated)
TGI: > 100 µM
//
COMPOUND: Nc1ncnc2c1nnn2C1C=C(CO)C(O)C1O (configuration not stated)
TGI: > 100 µM
//
COMPOUND: Nc1ccc(C(=O)NN2C(=O)C(Cl)C2c2cccc(O)c2)cc1 (configuration not stated)
TGI: 25.2 µM
//
COMPOUND: NC(=O)C12CC3CC(CC(Br)(C3)C1)C2
TGI: > 100 µM
//
COMPOUND: CC1(C)CC2=C(Sc3ccccc3N2)C(=O)C1C(=O)C(=O)Nc1cc(Cl)ccc1Cl (configuration not stated)
TGI: > 100 µM
//
COMPOUND: Cc1c(C#N)c2nnn(-c3ccccc3)c(=O)n2c1-c1ccccc1
TGI: > 100 µM
//
COMPOUND: C=CCC1(CC)C(=O)NC(=O)NC1=O
TGI: > 100 µM
//
COMPOUND: S=C(N/N=C\c1ccccn1)N(Cc1ccccn1)Cc1ccccn1
TGI: > 40 µM
//
COMPOUND: CCOC(=O)C(NC(=O)CC)(Nc1ccc(S(=O)(=O)Nc2nc(C)cc(C)n2)cc1)C(F)(F)F (configuration not stated)
TGI: > 100 µM
//
COMPOUND: CCNc1ncnc2c1nnn2CC
TGI: > 100 µM
//
COMPOUND: C=CCCCOC1[C@H](OCc2ccccc2)C(OCc2ccccc2)C(OC)O[C@@H]1CNC(=O)c1cccc(I)c1 (some centres not stated)
TGI: > 100 µM
//
COMPOUND: COc1cc(/C=C2\Cc3cc(OC)c(OC)cc3C2=O)cc(OC)c1
TGI: > 100 µM
//
COMPOUND: N.N.N.N.N.O=S(=O)([O-])C(F)(F)F.O=S(=O)([O-])C(F)(F)F.[Os+8]
TGI: 32.5 µM
//
COMPOUND: O=C(NN1C(=O)CSC1c1ccc(F)cc1)C(O)c1ccccc1 (configuration not stated)
TGI: > 100 µM
//
COMPOUND: COc1cc(C2CC(=O)Nc3c2cc(Br)c2ccccc32)cc(Br)c1OC (configuration not stated)
TGI: 3.7 µM
//
COMPOUND: CC1=C(Cl)C[C@@H](/C(C)=C\Cl)O[C@@]1(O)C(Br)Br
TGI: > 100 µM
//
COMPOUND: O=S(=O)(NC1=NCCN1C(=S)SN1CCn2c1nsc2=S)c1cccc(OC(F)(F)F)c1
TGI: 30.9 µM
//
COMPOUND: CCN(CC)CCC(CNc1c(C)cnc2cc(Cl)ccc12)c1ccc(Cl)cc1 (configuration not stated)
TGI: 13.2 µM
//
COMPOUND: CCCCc1ccc(-n2sc3ncccc3c2=O)cc1
TGI: 42.7 µM
//
COMPOUND: N#Cc1c(Nc2nc3ccccc3s2)c2ccccc2n2c1nc1ccccc12
TGI: > 100 µM
//
COMPOUND: CCC1C(=O)OCc2c1cc1n(c2=O)C(CC)c2c-1nc1ccccc1c2Cl (configuration not stated)
TGI: 49.4 µM
